The reported measurements were obtained from patent US20060276407A1.

- Assay Remarks: Multiple oral dosing for 14 days, pharmacokinetics in HCV infected subjects (Example 3)
- Type: in vivo, human
- Condition Notes: human, plasma, oral, 400 mg, Day 14, 400 mg BID, mean; read-out: AUC(0-12 hr)
Recorded Endpoint: AUC(0-t) (ng·h/mL)

- Compound: "CC(C)(C)NC(=O)N[C@H](C(=O)N1C[C@H]2[C@@H]([C@H]1C(=O)NC(CC1CCC1)C(=O)C(N)=O)C2(C)C)C(C)(C)C (mixture of isomers)"
  Units Text: "ng·h/mL"
  Readout Number: 1640

* * *

- Assay Remarks: Multiple oral dosing for 14 days, pharmacokinetics in HCV infected subjects (Example 3)
- Assay type: in vivo, human
- Condition Notes: human, plasma, oral, 100 mg, Day 1, 100 mg BID, mean, n = 12

- Compound: "CC(C)(C)NC(=O)N[C@H](C(=O)N1C[C@H]2[C@@H]([C@H]1C(=O)NC(CC1CCC1)C(=O)C(N)=O)C2(C)C)C(C)(C)C (mixture of isomers)"
  Cmax: "131 ng/mL"
